Each recorded value in this set is attributed to paper PMC4335062.

- experimental-target: ATF6 (Homo sapiens)
- Sequence (P18850 306-369 limits assumed): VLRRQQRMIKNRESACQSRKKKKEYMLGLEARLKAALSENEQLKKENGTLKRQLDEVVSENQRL
- test-summary: Direct-binding FRET assay
- Set-up: made in house
- condition-details: 23°C; C-terminal fluorescein design as donor, TAMRA target titrated; read-out: Kd
pKd: −log10 of the molar value. Where no end group is shown, it is not given here.
Measured pKd by item

entry_sequence="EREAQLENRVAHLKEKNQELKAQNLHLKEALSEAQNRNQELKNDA [XBP1-d1]" reported="< 6.00"

# input for lookup
Report pKd for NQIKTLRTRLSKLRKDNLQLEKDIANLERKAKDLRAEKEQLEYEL [ATF4-d1] tested on ATF6 (Homo sapiens).
< 6.00
